- System: P12-Ichikawa
- Assay method text: cell viability relative to DMSO control; higher = less cytotoxic
- Details: HPLM + 10% dialyzed FBS; 48 h; 5.12 µM
cell viability for assorted compounds
Please give a number only; it is taken to be in %.

# compound N#CC1(c2ccc(NC(=O)c3cccnc3NCc3ccncc3)cc2)CCCC1 ; its cell viability = 106

# compound Cn1cc(-c2cnn3c(N)c(Br)c([C@@H]4CCCNC4)nc23)cn1 ; its cell viability = 16.8

# compound CN[C@H]1[C@H](O[C@@H]2[C@H](O[C@@H]3[C@@H](O)[C@@H](O)[C@@H](NC(=N)N)[C@@H](O)[C@H]3NC(=N)N)O[C@H](C)[C@@]2(O)C=O)O[C@@H](CO)[C@@H](O)[C@H]1O ; its cell viability = 99.9

# compound C/C(=C\c1csc(C)n1)[C@@H]1C[C@@H]2O[C@]2(C)CCC[C@H](C)[C@H](O)[C@@H](C)C(=O)C(C)(C)[C@@H](O)CC(=O)O1 ; its cell viability = 30.8

###

cell viability for assorted molecules
- Tested on: P12-Ichikawa
- Assay method text: cell viability relative to DMSO control; higher = less cytotoxic
- Details: RPMI 5 mM glucose + 10% dialyzed FBS; 48 h; 0.569 µM
Please give a number only; it is taken to be in %.

molecule=CN(C)CC[C@H](CSc1ccccc1)Nc1ccc([S+](=O)([O-])NC(=O)c2ccc(N3CCN(Cc4ccccc4-c4ccc(Cl)cc4)CC3)cc2)cc1[N+](=O)[O-] outcome_measure="cell viability" recorded_value=95.5
molecule=CNC(=O)c1ccc(N2C(=S)N(c3ccc(C#N)c(C(F)(F)F)c3)C(=O)C2(C)C)cc1F outcome_measure="cell viability" recorded_value=119
molecule=Cn1cnc(-c2cc3nccc(Oc4ccc(NC(=S)NC(=O)Cc5ccccc5)cc4F)c3s2)c1 outcome_measure="cell viability" recorded_value=85.6
molecule=C[C@H]1C[C@H]2[C@@H]3CCC4=CC(=O)C=C[C@]4(C)[C@H]3C(=O)C[C@]2(C)[C@@]1(O)C(=O)CO outcome_measure="cell viability" recorded_value=82.7
molecule=C[C@H]1[C@H](O)O[C@@H]2O[C@@]3(C)CC[C@H]4[C@H](C)CC[C@@H]1[C@@]24OO3 outcome_measure="cell viability" recorded_value=84

# molecule CN[C@H]1[C@H](O[C@@H]2[C@H](O[C@@H]3[C@@H](O)[C@@H](O)[C@@H](NC(=N)N)[C@@H](O)[C@H]3NC(=N)N)O[C@H](C)[C@@]2(O)C=O)O[C@@H](CO)[C@@H](O)[C@H]1O ; its cell viability = 89.3

# molecule CN(c1nccc(=O)[nH]1)C1CCN(c2nc3ccccc3n2Cc2ccc(F)cc2)CC1 ; its cell viability = 121

# molecule COc1cc(Nc2ncc(F)c(Nc3ccc4c(n3)N(COP(=O)(O)O)C(=O)C(C)(C)O4)n2)cc(OC)c1OC ; its cell viability = 93.9

# molecule OC(CCN1CCCCC1)(C2CC\3CC2\C=C3)C4=CC=CC=C4 (stereo unspecified) ; its cell viability = 123

# molecule FC1=CC=C(CN2\C=C/C=C(/C(=O)N[C@@H](COC3=CC4=C(NC(=O)N4)C=C3)C5=CC=CC=C5)C2=O)C=C1F ; its cell viability = 79.9

# molecule Oc1cc2c(cc1O)C1c3ccc(O)c(O)c3OCC1(O)C2 (stereo unspecified) ; its cell viability = 106
